- assayRemarks: Phase 1 single-dose crossover: bioavailability and food effect of Compound 1/Compound 2 bilayer tablets
- Assay type: in vivo, human
- assayConditions: human, in vivo, oral, Regimen D: single dose separate Compound 1 tablets (3 × 100 mg) and Compound 2 tablets (3 × 40 mg), fasting; N = 23; geometric mean
Below, each of the compounds is paired with its reported AUC(0-t) value.
# output: number + unit

COC(=O)N[C@H](C(=O)N1CCC[C@H]1c1nc2cc([C@H]3CC[C@H](c4cc5nc([C@@H]6CCCN6C(=O)[C@@H](NC(=O)OC)[C@@H](C)OC)[nH]c5cc4F)N3c3cc(F)c(N4CCC(c5ccc(F)cc5)CC4)c(F)c3)c(F)cc2[nH]1)[C@@H](C)OC [Compound 2] yielded AUC(0-t) of 1420 ng·h/mL

AUC(0-t) in this record for CC(C)(C)[C@@H]1NC(=O)O[C@@H]2CCC[C@H]2OC/C=C/C(F)(F)c2nc3ccccc3nc2O[C@@H]2C[C@@H](C(=O)N[C@]3(C(=O)NS(=O)(=O)C4(C)CC4)C[C@H]3C(F)F)N(C2)C1=O [Compound 1] : 2620 ng·h/mL

----------
- assayRemarks: Predicted PK exposures (Pop-PK AUC) in pediatric subjects
- Type: in vivo
- Design: concentration or dose not given beside the values
- assayConditions: human, in vivo, oral, Table 13a; 6 to <9 years old; N 9; predicted
- From the text: The predicted PK exposures (“Pop-PK AUC”) of Compound 1/Compound 2 based on all PK information collected in the study (including data from other study weeks) is shown in Table 13 and Table 13a.
Each entry below carries its reported AUC.
Respond numerically; units are µg·h/mL and should not be typed.

COC(=O)N[C@H](C(=O)N1CCC[C@H]1c1nc2cc([C@H]3CC[C@H](c4cc5nc([C@@H]6CCCN6C(=O)[C@@H](NC(=O)OC)[C@@H](C)OC)[nH]c5cc4F)N3c3cc(F)c(N4CCC(c5ccc(F)cc5)CC4)c(F)c3)c(F)cc2[nH]1)[C@@H](C)OC : 1.73

Input "CC(C)(C)[C@@H]1NC(=O)O[C@@H]2CCC[C@H]2OC/C=C/C(F)(F)c2nc3ccccc3nc2O[C@@H]2C[C@@H](C(=O)N[C@]3(C(=O)NS(=O)(=O)C4(C)CC4)C[C@H]3C(F)F)N(C2)C1=O" . Output AUC: 5.16

----------
- assayRemarks: Single-dose crossover: bioavailability of Compound 1/Compound 2 mini-tablets
- Type: in vivo, human
- assayConditions: human, in vivo, oral, Regimen J: two Compound 1 tablets (100 mg each) and three Compound 2 tablets (40 mg each), fasting; N = 14; harmonic mean
Listing of entries alongside the reported half-life.
I only need the number, in h, no unit after it.

COC(=O)N[C@H](C(=O)N1CCC[C@H]1c1nc2cc([C@H]3CC[C@H](c4cc5nc([C@@H]6CCCN6C(=O)[C@@H](NC(=O)OC)[C@@H](C)OC)[nH]c5cc4F)N3c3cc(F)c(N4CCC(c5ccc(F)cc5)CC4)c(F)c3)c(F)cc2[nH]1)[C@@H](C)OC : 13.3

Field: next molecule
Per the records, this molecule ( "CC(C)(C)[C@@H]1NC(=O)O[C@@H]2CCC[C@H]2OC/C=C/C(F)(F)c2nc3ccccc3nc2O[C@@H]2C[C@@H](C(=O)N[C@]3(C(=O)NS(=O)(=O)C4(C)CC4)C[C@H]3C(F)F)N(C2)C1=O" ) has half-life equal to 5.93

----------
- assayRemarks: Phase 1 single-dose crossover: bioavailability and food effect of Compound 1/Compound 2 bilayer tablets
- Format: in vivo, human
- assayConditions: human, in vivo, oral, Regimen A: single dose bilayer tablets 300 mg/120 mg, fasting; N = 23; harmonic mean
# half-life per record follows
In your response, put the unit directly after the numeric value.

COC(=O)N[C@H](C(=O)N1CCC[C@H]1c1nc2cc([C@H]3CC[C@H](c4cc5nc([C@@H]6CCCN6C(=O)[C@@H](NC(=O)OC)[C@@H](C)OC)[nH]c5cc4F)N3c3cc(F)c(N4CCC(c5ccc(F)cc5)CC4)c(F)c3)c(F)cc2[nH]1)[C@@H](C)OC : 13.3 h

In plain terms, "CC(C)(C)[C@@H]1NC(=O)O[C@@H]2CCC[C@H]2OC/C=C/C(F)(F)c2nc3ccccc3nc2O[C@@H]2C[C@@H](C(=O)N[C@]3(C(=O)NS(=O)(=O)C4(C)CC4)C[C@H]3C(F)F)N(C2)C1=O" has a documented half-life of 6 h

----------
The following molecules are listed with their measured AUC(0-t) values.
- assayRemarks: Phase 1 single-dose crossover: bioavailability and food effect of Compound 1/Compound 2 bilayer tablets
- Assay type: in vivo, human
- assayConditions: human, in vivo, oral, Regimen A: single dose bilayer tablets 300 mg/120 mg, fasting; N = 23; geometric mean
Numeric answer only, unit ng·h/mL assumed.

CC(C)(C)[C@@H]1NC(=O)O[C@@H]2CCC[C@H]2OC/C=C/C(F)(F)c2nc3ccccc3nc2O[C@@H]2C[C@@H](C(=O)N[C@]3(C(=O)NS(=O)(=O)C4(C)CC4)C[C@H]3C(F)F)N(C2)C1=O : 1150

For the next question, use this molecule.
Record "COC(=O)N[C@H](C(=O)N1CCC[C@H]1c1nc2cc([C@H]3CC[C@H](c4cc5nc([C@@H]6CCCN6C(=O)[C@@H](NC(=O)OC)[C@@H](C)OC)[nH]c5cc4F)N3c3cc(F)c(N4CCC(c5ccc(F)cc5)CC4)c(F)c3)c(F)cc2[nH]1)[C@@H](C)OC" , field AUC(0-t): 910

----------
- assayRemarks: Single-dose crossover: bioavailability of Compound 1/Compound 2 mini-tablets
- Assay type: in vivo, human
- assayConditions: human, in vivo, oral, Regimen G: single dose mini-tablets 200 mg/120 mg Compound 1/Compound 2, non-fasting; N = 14; geometric mean
assayMetric: Cmax (ng/mL)
Express it in ng/mL; write the number only.

Reported Cmax of CC(C)(C)[C@@H]1NC(=O)O[C@@H]2CCC[C@H]2OC/C=C/C(F)(F)c2nc3ccccc3nc2O[C@@H]2C[C@@H](C(=O)N[C@]3(C(=O)NS(=O)(=O)C4(C)CC4)C[C@H]3C(F)F)N(C2)C1=O [Compound 1] : 166

For record COC(=O)N[C@H](C(=O)N1CCC[C@H]1c1nc2cc([C@H]3CC[C@H](c4cc5nc([C@@H]6CCCN6C(=O)[C@@H](NC(=O)OC)[C@@H](C)OC)[nH]c5cc4F)N3c3cc(F)c(N4CCC(c5ccc(F)cc5)CC4)c(F)c3)c(F)cc2[nH]1)[C@@H](C)OC [Compound 2] the listed Cmax is 177

----------
- assayRemarks: Steady-state pharmacokinetics of film-coated granules in pediatric subjects by age group
- Assay type: in vivo, human
- assayConditions: human, blood, oral, Week 2; 9 to <12 years old; post-adjustment, 5 sachets, 250 mg/100 mg Compound 1/Compound 2; N 10; film-coated granules; read-out: AUC
assayMetric: AUC (ng·h/mL)
Give the quantity in ng·h/mL, number only.

Looking up "CC(C)(C)[C@@H]1NC(=O)O[C@@H]2CCC[C@H]2OC/C=C/C(F)(F)c2nc3ccccc3nc2O[C@@H]2C[C@@H](C(=O)N[C@]3(C(=O)NS(=O)(=O)C4(C)CC4)C[C@H]3C(F)F)N(C2)C1=O" , I see its AUC listed as 8670

----------
Measured AUC(0-t), listed per entry for reference.
- assayRemarks: Phase 1 single-dose crossover: bioavailability and food effect of Compound 1/Compound 2 bilayer tablets
- Format: in vivo, human
- assayConditions: human, in vivo, oral, Regimen C: single dose bilayer tablets 300 mg/120 mg with high fat breakfast; N = 23; geometric mean
Please reply with the bare figure in ng·h/mL and do not write the unit itself.

COC(=O)N[C@H](C(=O)N1CCC[C@H]1c1nc2cc([C@H]3CC[C@H](c4cc5nc([C@@H]6CCCN6C(=O)[C@@H](NC(=O)OC)[C@@H](C)OC)[nH]c5cc4F)N3c3cc(F)c(N4CCC(c5ccc(F)cc5)CC4)c(F)c3)c(F)cc2[nH]1)[C@@H](C)OC : 1390

// sample "CC(C)(C)[C@@H]1NC(=O)O[C@@H]2CCC[C@H]2OC/C=C/C(F)(F)c2nc3ccccc3nc2O[C@@H]2C[C@@H](C(=O)N[C@]3(C(=O)NS(=O)(=O)C4(C)CC4)C[C@H]3C(F)F)N(C2)C1=O" , its AUC(0-t) was 2110

----------
Let's look at some compounds and their measured AUC(0-inf).
- assayRemarks: Phase 1 single-dose crossover: bioavailability and food effect of Compound 1/Compound 2 bilayer tablets
- Type: in vivo, human
- assayConditions: human, in vivo, oral, Regimen B: single dose bilayer tablets 300 mg/120 mg with moderate fat breakfast; N = 23; geometric mean
Write the number in ng·h/mL without appending the unit.

COC(=O)N[C@H](C(=O)N1CCC[C@H]1c1nc2cc([C@H]3CC[C@H](c4cc5nc([C@@H]6CCCN6C(=O)[C@@H](NC(=O)OC)[C@@H](C)OC)[nH]c5cc4F)N3c3cc(F)c(N4CCC(c5ccc(F)cc5)CC4)c(F)c3)c(F)cc2[nH]1)[C@@H](C)OC : 1350

--- query ---
Record "CC(C)(C)[C@@H]1NC(=O)O[C@@H]2CCC[C@H]2OC/C=C/C(F)(F)c2nc3ccccc3nc2O[C@@H]2C[C@@H](C(=O)N[C@]3(C(=O)NS(=O)(=O)C4(C)CC4)C[C@H]3C(F)F)N(C2)C1=O" . Reported AUC(0-inf): 3040

Entry source: patent US20210023012A1
